Measured values drawn from the supplement of paper PMC11246515 for this set.

- test.protocol: total protein half-life in vivo (active degradation + dilution); higher = more stable protein
- setup.conditions: wild type E. coli NCM3722; growth: P-lim chemostat; doubling time 6 h
recorded.metric: total protein half-life in vivo
Dear colleague, please send the value followed by its unit.

Below, 4 sequences whose answers are already recorded.
MNYQNDDLRIKEIKELLPPVALLEKFPATENAANTVAHARKAIHKILKGNDDRLLVVIGPCSIHDPVAAKEYATRLLALREELKDELEIVMRVYFEKPRTTVGWKGLINDPHMDNSFQINDGLRIARKLLLDINDSGLPAAGEFLDMITPQYLADLMSWGAIGARTTESQVHRELASGLSCPVGFKNGTDGTIKVAIDAINAAGAPHCFLSVTKWGHSAIVNTSGNGDCHIILRGGKEPNYSAKHVAEVKEGLNKAGLPAQVMIDFSHANSSKQFKKQMDVCADVCQQIAGGEKAIIGVMVESHLVEGNQSLESGEPLAYGKSITDACIGWEDTDALLRQLANAVKARRG [P0AB91] = 5.41 h
MSNTDASGEKRVTGTSERREQIIQRLRQQGSVQVNDLSALYGVSTVTIRNDLAFLEKQGIAVRAYGGALICDSTTPSVEPSVEDKSALNTAMKRSVAKAAVELIQPGHRVILDSGTTTFEIARLMRKHTDVIAMTNGMNVANALLEAEGVELLMTGGHLRRQSQSFYGDQAEQSLQNYHFDMLFLGVDAIDLERGVSTHNEDEARLNRRMCEVAERIIVVTDSSKFNRSSLHKIIDTQRIDMIIVDEGIPADSLEGLRKAGVEVILVGE [P0ACK2] = 5.05 h
METRREERIGQLLQELKRSDKLHLKDAAALLGVSEMTIRRDLNNHSAPVVLLGGYIVLEPRSASHYLLSDQKSRLVEEKRRAAKLAATLVEPDQTLFFDCGTTTPWIIEAIDNEIPFTAVCYSLNTFLALKEKPHCRAFLCGGEFHASNAIFKPIDFQQTLNNFCPDIAFYSAAGVHVSKGATCFNLEELPVKHWAMSMAQKHVLVVDHSKFGKVRPARMGDLKRFDIVVSDCCPEDEYVKYAQTQRIKLMY [P0ACK5] = 5.99 h
MRLGTFHKKKRFYINKIKINFLSFLFRNKINNQITDPAQVKSCLIIHDNNKLGDLIVLSSIYRELYSKGVKITLLTNRKGGEFLSNNKNIFEFCIKESTGFLEMLTLCKHLRDLQFDIVLDPFETMPSFKHSLILSSLKDSYILGFDHWYKRYYSFYHPHDECLKEHMSTRAIEILKHIYGEGKFSTNYDLHLPVDVEDKIKEFIGDTRIVIINPLGAKKICRLTFEQIKVIYQEVKTHFENYRIIFTGLPQDLLTIPILEIETLPFDEFIYTVALTKYSDFVISVDTALVHIAAAYHKPTLAFYPNSRTPEYPSHLIWSPNHHKSIQIVSPTYTVKDIDTETLTNSVKRLSCIDKK = 5.23 h

Consider the record given below.
Query string: // fetch total protein half-life in vivo given entry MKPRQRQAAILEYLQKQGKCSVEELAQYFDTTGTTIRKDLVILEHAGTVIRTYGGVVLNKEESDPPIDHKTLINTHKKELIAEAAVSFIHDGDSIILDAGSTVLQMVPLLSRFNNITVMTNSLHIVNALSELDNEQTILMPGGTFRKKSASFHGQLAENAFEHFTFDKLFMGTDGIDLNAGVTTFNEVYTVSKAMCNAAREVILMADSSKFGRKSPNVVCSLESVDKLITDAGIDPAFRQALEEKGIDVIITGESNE
Result string: 5.82 h
